Task for the reader: assign each of the following compounds its reported TOTAL PROTEIN.
species on record: Rattus norvegicus; assay: DrugMatrix - Regimen: Daily Repeat; type: toxicity, organism-based, Sprague-Dawley; parameters: regimen Daily Repeat, gender Male, age 6-8 weeks; conditions: in vivo, iv, 0 mg/kg, 72 h, tissue Plasma, dose level Control, time 3 day, vehicle 100 % SALINE

Look over these answered cases.
compound: COc1cccc2c1C(=O)c1c(O)c3c(c(O)c1C2=O)C[C@@](O)(C(=O)CO)C[C@@H]3O[C@H]1C[C@H](N)[C@H](O)[C@H](C)O1
measured-metric: TOTAL PROTEIN
value-measured: 5.8 G/DL
--
compound: CCc1c2c(nc3ccc(OC(=O)N4CCC(N5CCCCC5)CC4)cc13)-c1cc3c(c(=O)n1C2)COC(=O)[C@]3(O)CC
measured-metric: TOTAL PROTEIN
value-measured: 5.98 G/DL
--
compound: CC[C@]1(O)C[C@@H]2CN(CCc3c([nH]c4ccccc34)[C@@](C(=O)OC)(c3cc4c(cc3OC)N(C)[C@H]3[C@@](O)(C(=O)OC)[C@H](OC(C)=O)[C@]5(CC)C=CCN6CC[C@]43[C@@H]65)C2)C1
measured-metric: TOTAL PROTEIN
value-measured: 6.02 G/DL

Read the next record carefully.
Query: Please give measured TOTAL PROTEIN of the following entry: "CCC1=C[C@@H]2CN(C1)Cc1c([nH]c3ccccc13)[C@@](C(=O)OC)(c1cc3c(cc1OC)N(C)[C@H]1[C@@](O)(C(=O)OC)[C@H](OC(C)=O)[C@]4(CC)C=CCN5CC[C@]31[C@@H]54)C2"
Result: 5.87 G/DL

====

Record form. Attribute: CARBON DIOXIDE. Fill in for each entry.
species: Rattus norvegicus; assay: DrugMatrix - Regimen: Daily Repeat; format: toxicity, organism-based, Sprague-Dawley; design: regimen Daily Repeat, gender Male, age 6-8 weeks; details: in vivo, iv, 0 mg/kg, 72 h, tissue Plasma, dose level Control, time 3 day, vehicle 100 % SALINE
Give bare numbers, in mmol/L.

compound: COc1cccc2c1C(=O)c1c(O)c3c(c(O)c1C2=O)C[C@@](O)(C(=O)CO)C[C@@H]3O[C@H]1C[C@H](N)[C@@H](O)[C@H](C)O1 [EPIRUBICIN]
CARBON DIOXIDE / mmol/L: 26.5
--
compound: CC[C@]1(O)C[C@@H]2CN(CCc3c([nH]c4ccccc34)[C@@](C(=O)OC)(c3cc4c(cc3OC)N(C)[C@H]3[C@@](O)(C(=O)OC)[C@H](OC(C)=O)[C@]5(CC)C=CCN6CC[C@]43[C@@H]65)C2)C1
CARBON DIOXIDE / mmol/L: 30.33

For every listed record, write down its CARBON DIOXIDE.
1. CCc1c2c(nc3ccc(OC(=O)N4CCC(N5CCCCC5)CC4)cc13)-c1cc3c(c(=O)n1C2)COC(=O)[C@]3(O)CC
2. CCC1=C[C@@H]2CN(C1)Cc1c([nH]c3ccccc13)[C@@](C(=O)OC)(c1cc3c(cc1OC)N(C)[C@H]1[C@@](O)(C(=O)OC)[C@H](OC(C)=O)[C@]4(CC)C=CCN5CC[C@]31[C@@H]54)C2
3. COc1cccc2c1C(=O)c1c(O)c3c(c(O)c1C2=O)C[C@@](O)(C(=O)CO)C[C@@H]3O[C@H]1C[C@H](N)[C@H](O)[C@H](C)O1

Result:
1. 26.5
2. 29.33
3. 34.67

Provenance of the data: ChEMBL document CHEMBL3885881
